Molecular target: EP4 (Homo sapiens (Human))
Sequence (P35408 whole entry): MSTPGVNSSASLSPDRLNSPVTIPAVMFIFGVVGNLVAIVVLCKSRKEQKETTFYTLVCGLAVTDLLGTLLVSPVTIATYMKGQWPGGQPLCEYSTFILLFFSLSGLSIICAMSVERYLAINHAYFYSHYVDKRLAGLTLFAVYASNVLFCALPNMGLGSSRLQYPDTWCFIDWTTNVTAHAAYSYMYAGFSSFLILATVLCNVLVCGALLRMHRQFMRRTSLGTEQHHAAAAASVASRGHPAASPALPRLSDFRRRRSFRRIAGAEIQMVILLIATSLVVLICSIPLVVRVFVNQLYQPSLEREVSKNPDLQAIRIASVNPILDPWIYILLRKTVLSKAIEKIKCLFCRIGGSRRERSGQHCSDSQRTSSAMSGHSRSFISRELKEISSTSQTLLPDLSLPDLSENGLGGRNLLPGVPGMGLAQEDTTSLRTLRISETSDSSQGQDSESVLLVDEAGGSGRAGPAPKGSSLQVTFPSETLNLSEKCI
Assay: CRE-PLAP reporter assay
Conditions: SE302 (HEK/293 clone) cells with endogenous EP4, stimulated with 3 ng/mL PGE2 overnight
Kindly apply the following: Criterion met if IC50 is less than 200 nM, Criterion not met in every other case.

[
  {
    "substance-smiles": "C[C@H](NC(=O)c1c(C(F)F)nn(C)c1Oc1cccc(OC(F)F)c1)c1ccc(C(=O)O)cc1",
    "class": "Criterion met"
  },
  {
    "substance-smiles": "Cc1nn(C)c(Oc2cccc(Cl)c2)c1C(=O)NC1(c2ccc(C(=O)O)cc2)CC1",
    "class": "Criterion met"
  },
  {
    "substance-smiles": "Cc1nn(C)c(Oc2cc(F)ccc2Cl)c1C(=O)N[C@@H](C)c1ccc(C(=O)O)cc1",
    "class": "Criterion not met"
  },
  {
    "substance-smiles": "C[C@H](NC(=O)c1c(C(F)(F)F)nn(C)c1Oc1ccc(Cl)c(Cl)c1)c1ccc(C(=O)O)cc1",
    "class": "Criterion met"
  },
  {
    "substance-smiles": "Cc1nn(C)c(Oc2cccc(OC(F)F)c2)c1C(=O)N[C@@H](C)c1ccc(C(=O)O)cc1",
    "class": "Criterion met"
  },
  {
    "substance-smiles": "Cc1nn(C)c(Oc2ccc(F)cc2)c1C(=O)N[C@@H](C)c1ccc(C(=O)O)cc1",
    "class": "Criterion not met"
  },
  {
    "substance-smiles": "C[C@H](NC(=O)c1c(C(F)(F)F)nn(C)c1Oc1cccc(Cl)c1)c1ccc(C(=O)O)cc1",
    "class": "Criterion met"
  },
  {
    "substance-smiles": "C[C@H](NC(=O)c1c(C(F)(F)F)nn(C)c1Oc1ccc(Cl)cc1)c1ccc(C(=O)O)cc1",
    "class": "Criterion met"
  },
  {
    "substance-smiles": "Cc1cccc(Oc2c(C(=O)N[C@@H](C)c3ccc(C(=O)O)cc3)c(C)nn2C)c1",
    "class": "Criterion not met"
  },
  {
    "substance-smiles": "C[C@H](NC(=O)c1c(C(F)F)nn(C)c1Oc1ccc(Cl)c(Cl)c1)c1ccc(C(=O)O)cc1",
    "class": "Criterion met"
  },
  {
    "substance-smiles": "Cc1nn(C)c(Oc2ccc(F)c(F)c2)c1C(=O)N[C@@H](C)c1ccc(C(=O)O)cc1",
    "class": "Criterion not met"
  },
  {
    "substance-smiles": "Cn1nc(C(F)F)c(C(=O)NC2(c3ccc(C(=O)O)cc3)CC2)c1Oc1ccc(C(F)(F)F)cc1",
    "class": "Criterion met"
  },
  {
    "substance-smiles": "Cc1nn(C)c(Oc2cccc(C(F)(F)F)c2)c1C(=O)N[C@@H](C)c1ccc(C(=O)O)cc1",
    "class": "Criterion met"
  },
  {
    "substance-smiles": "Cc1nn(C)c(Oc2cccc(Cl)c2)c1C(=O)N[C@@H](C)c1ccc(C(=O)O)cc1",
    "class": "Criterion met"
  },
  {
    "substance-smiles": "Cc1nn(C)c(Oc2cc(F)ccc2F)c1C(=O)N[C@@H](C)c1ccc(C(=O)O)cc1",
    "class": "Criterion not met"
  },
  {
    "substance-smiles": "Cn1nc(C(F)(F)F)c(C(=O)NC2(c3ccc(C(=O)O)cc3)CC2)c1Oc1ccc(Cl)c(Cl)c1",
    "class": "Criterion met"
  },
  {
    "substance-smiles": "Cc1ccc(Oc2c(C(=O)N[C@@H](C)c3ccc(C(=O)O)cc3)c(C)nn2C)cc1",
    "class": "Criterion not met"
  },
  {
    "substance-smiles": "Cn1nc(C(F)F)c(C(=O)NC2(c3ccc(C(=O)O)cc3)CC2)c1Oc1ccc(Cl)c(Cl)c1",
    "class": "Criterion met"
  },
  {
    "substance-smiles": "Cn1nc(C(F)(F)F)c(C(=O)NC2(c3ccc(C(=O)O)cc3)CC2)c1Oc1cccc(C(F)(F)F)c1",
    "class": "Criterion met"
  },
  {
    "substance-smiles": "COc1cc(OC)cc(Oc2c(C(=O)N[C@@H](C)c3ccc(C(=O)O)cc3)c(C)nn2C)c1",
    "class": "Criterion not met"
  },
  {
    "substance-smiles": "Cn1nc(C(F)(F)F)c(C(=O)NC2(c3ccc(C(=O)O)cc3)CC2)c1Oc1cccc(Cl)c1",
    "class": "Criterion met"
  },
  {
    "substance-smiles": "Cn1nc(C(F)F)c(C(=O)NC2(c3ccc(C(=O)O)cc3)CC2)c1Oc1ccc(Cl)cc1",
    "class": "Criterion met"
  },
  {
    "substance-smiles": "C[C@H](NC(=O)c1c(C(F)(F)F)nn(C)c1Oc1ccc(F)c(F)c1)c1ccc(C(=O)O)cc1",
    "class": "Criterion met"
  },
  {
    "substance-smiles": "Cc1nn(C)c(Oc2cc(Cl)cc(Cl)c2)c1C(=O)N[C@@H](C)c1ccc(C(=O)O)cc1",
    "class": "Criterion not met"
  },
  {
    "substance-smiles": "C[C@H](NC(=O)c1c(C(F)(F)F)nn(C)c1Oc1cccc(OC(F)F)c1)c1ccc(C(=O)O)cc1",
    "class": "Criterion met"
  },
  {
    "substance-smiles": "Cc1nn(C)c(Oc2ccc(Cl)cc2)c1C(=O)N[C@@H](C)c1ccc(C(=O)O)cc1",
    "class": "Criterion not met"
  }
]
